Sourced from PubChem BioAssay

molecular target: Epidermal growth factor receptor (Homo sapiens); assay: EGFR binders on small-molecule microarrays, primary screen, biochemical, small-molecule microarray, 635 nm fluorescence (AID 1104); settings: EGFR binding, higher = more signal;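 also: score merges 667 nm emission intensity with spot signal to noise over triplicate slides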
Everything with composite z-score lower than -0.2 is condition not met; everything else, including exactly -0.2, is condition met.

Solved entries (count: 5):
compound	category.label
O=C(NCC(F)(F)F)[C@@H]1c2ccccc2C(=O)N(Cc2ccccc2C(F)(F)F)[C@H]1c1ccc(CO)cc1	condition not met
COCCOC(=O)N1C(=O)[C@@]2(c3cc(C#CC4(O)CCCCCC4)ccc31)[C@H](c1ccc(O)cc1)N1[C@H](c3ccccc3)[C@H](c3ccccc3)OC(=O)[C@H]1[C@@H]2C(=O)NC[C@H](O)c1ccccc1	condition met
C=CC[C@]1(C(=O)O)COC(c2ccc(OCCCO)cc2)=N1	condition met
COCCOC(=O)N1C(=O)[C@@]2(c3cc(C#Cc4ccc(OC)cc4)ccc31)[C@H](c1ccc(O)cc1)N1[C@H](c3ccccc3)[C@H](c3ccccc3)OC(=O)[C@H]1[C@@H]2C(=O)N1CCCCCCC1	condition met
C=CCN1C(=O)[C@@]2(O[C@@H](CCn3cc([C@H](O)c4ccccc4)nn3)[C@H]([Si](C)(C)c3ccc(OC)cc3)[C@H]2C)c2cc(N3CCC3=O)ccc21	condition met

# evaluate next
[ask] Answer whether composite z-score of O=C1C2C=CC(C(O)c3ccc(Br)cc3)N(Nc3ccccc3F)C2C(=O)N1c1ccccc1 (stereo unspecified) is greater than or equal to -0.2.
[reply] condition not met

----------
experiment: basal 3T3-L1 adipocyte mitochondrial potential changes, profiling panel, cell-based, JC-1 fluorescence, 3T3-L1 adipocytes, 24 h, 100 nL compound (AID 1168); settings: JC-1 mitochondrial fluorescence, higher = more signal, called active from +8 up or from −8 down; also: test concentration not given here
assay.metric: z-score
Keep the answer to the number alone.

Guide cases for z-score, answers given:
molecule	z-score
C=C[C@@H](OC)[C@H](OC(=O)Nc1ccc(SC)cc1)c1ccc(O)c(F)c1	1.47
C=CCNC(=O)[C@@H]1[C@H]2C(=O)O[C@H](c3ccccc3)[C@H](c3ccccc3)N2[C@H](c2ccc(O)cc2)[C@@]12C(=O)N(C(=O)OCCOC)c1ccc(C#CC3(O)CCCCCC3)cc12	0.8
O=C1OCCC/C=C\[C@H]2OC34C=CCN(CCN5CCOCC5)C(=O)[C@H]3N(CCCCCCO)C(=O)[C@@H]4C12 (stereo partly drawn)	0.587
CCCC[C@@H](O)C1=C(COc2ccccc2)C[C@H]2C(=O)N(C)C(=O)[C@H]2[C@H]1CO	0.56
C=C(C)C1CCC(C(O)C2C=CC3C(=O)N(C)C(=O)C3N2N2CCCCC2)CC1 (stereo not drawn)	-1.53
COc1ccc([Si](C)(C)[C@H]2[C@H](CC(=O)N(CCO)Cc3ccccc3)O[C@@]3(C(=O)N(Cc4cccc(N5CCOC5=O)c4)c4ccccc43)[C@@H]2C)cc1	-0.606
COC(=O)c1ccc([C@H](NC(=O)c2ccco2)[C@]2(C)C[C@H]2C2CCCCC2)cc1	-1.02
COCCOC(=O)N1C(=O)[C@@]2(c3cc(C#CC4=CCCCC4)ccc31)[C@H](c1ccccc1OCCO)N1[C@H](c3ccccc3)[C@H](c3ccccc3)OC(=O)[C@H]1[C@@H]2C(=O)Nc1nc2ccccc2s1	0.745
COC1OC[C@]2(C)[C@H]3C4=C(CN2C(=O)OC(C)(C)C)[C@H](C)C(CO)C(CO)C4CC[C@@H]13 (stereo partly drawn)	0.0682
[N-]=[N+]=Nc1ccccc1C[C@]1(C(N)=O)N=C(c2ccc(OCCCO)cc2)O[C@H]1c1ccccc1N=[N+]=[N-]	-0.981

[ask] What does the data say about its z-score? Entry: C=CCOC(=O)[C@H]1[C@@H]2C(=O)O[C@@H](c3ccccc3)[C@@H](c3ccccc3)N2[C@@H](c2ccc(OCCOC(=O)[C@H]3C[C@H]4C(=O)N[C@@H](CCCCNC(C)=O)C(=O)N4[C@H]3c3ccc(O)cc3)cc2)[C@]12C(=O)Nc1ccccc12
[reply] -0.0783

[ask] What does the data say about its z-score? Entry: CCCNC(=O)[C@@]1(c2ccc([N+](=O)[O-])cc2)CC(=O)N(C2CCCCC2)[C@@H]1c1ccc(CO)cc1
[reply] -1.19

[ask] What does the data say about its z-score? Entry: C=CCC(OC(C)=O)[C@@H]1[C@@H](N(Cc2cccc3ccccc23)C(=O)Cc2ccc(OC)cc2)c2cc(OCCCO)ccc2N1C(=O)c1ccc2ccccc2n1 (stereo partly drawn)
[reply] -0.0994

----------
target: Dickkopf-related protein 1 (Homo sapiens) (UniProt O94907); test: DKK1 binders on small-molecule microarrays, primary screen, biochemical, small-molecule microarray, 635 nm fluorescence scan (AID 1106); details: DKK1 binding, higher = more signal;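 also: score merges emission near 667 nm with signal to noise over three replicate slides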
Sequence (O94907 whole entry, looked up): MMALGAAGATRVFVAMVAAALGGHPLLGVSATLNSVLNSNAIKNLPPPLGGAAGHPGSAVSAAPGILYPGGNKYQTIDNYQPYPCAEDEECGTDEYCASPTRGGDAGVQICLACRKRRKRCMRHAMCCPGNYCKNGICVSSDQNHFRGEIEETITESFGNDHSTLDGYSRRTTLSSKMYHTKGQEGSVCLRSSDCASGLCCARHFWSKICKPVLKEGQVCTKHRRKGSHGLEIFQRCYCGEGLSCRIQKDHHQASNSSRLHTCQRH
assay.metric: composite z-score
Keep the answer to the number alone.

Guide cases for composite z-score, answers given:
compound	target.or.test.system	composite z-score
COc1cc2c(cc1O)C(C)N(Cc1ccc([N+](=O)[O-])o1)CC2 (configuration not stated)	Dickkopf-related protein 1 (Homo sapiens) (UniProt O94907)	-0.0673
O=C1C2C=CC(C(O)c3ccc(F)cc3)N(n3cnnc3)C2C(=O)N1Cc1ccccc1 (configuration not stated)	Dickkopf-related protein 1 (Homo sapiens) (UniProt O94907)	-0.44
COCCOC(=O)N1C(=O)[C@@]2(c3cc(C#Cc4ccc(OC)cc4)ccc31)[C@H](c1ccc(O)cc1)N1[C@H](c3ccccc3)[C@H](c3ccccc3)OC(=O)[C@H]1[C@@H]2C(=O)N1CCCCCCC1	Dickkopf-related protein 1 (Homo sapiens) (UniProt O94907)	0.423
C=CCC(OC(C)=O)[C@@H]1[C@@H](N(Cc2ccc(-c3cccc(C(F)(F)F)c3)o2)C(=O)c2ccc(C)cc2)c2cc(OCCCO)ccc2N1C(=O)c1ccc2ccccc2c1 (some centres not stated)	Dickkopf-related protein 1 (Homo sapiens) (UniProt O94907)	0.217
COC(=O)[C@@]1(Cc2ccc(OC)cc2)[C@H]2c3cc(C(=O)N(C)C)n(C[C@H](O)CO)c3C[C@H]2CN1C(=O)c1ccccc1	Dickkopf-related protein 1 (Homo sapiens) (UniProt O94907)	-1.18
CCCCC(=C=CC[C@@H](O)c1ccccc1OCCO)C[C@@H](O)COCc1ccccc1	Dickkopf-related protein 1 (Homo sapiens) (UniProt O94907)	-0.498

[ask] What does the data say about its composite z-score? Entry: C[N+](C)(C)CCCC[C@@H]1NC(=O)[C@H]2C[C@@H](C(=O)NCCCCCCN)[C@@H](c3ccc(O)cc3)N2C1=O
[reply] 0.0717

----------
test: E. coli acrAB mutant growth effects, primary screen, E. coli filamentation inducers, strain DRC39, OD650, 48 h (AID 1179);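 also: screen aims at cell division blockers that make cells filament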; settings: E. coli DRC39 delta-acrAB growth, higher = more signal, called active from +8 up or from −8 down
assay.metric: z-score
Keep the answer to the number alone.

Guide cases for z-score, answers given:
molecule	z-score
COC(=O)[C@@]1(Cc2ccc(F)cc2)[C@H]2c3cc(C(=O)N4CCCC4)n(CCc4ccc(O)c(O)c4)c3C[C@H]2CN1C(=O)c1ccccc1	-0.177
O=C(NCc1ccccc1)[C@@H]1c2ccccc2C(=O)N(Cc2ccccc2C(F)(F)F)[C@H]1c1ccc(CO)cc1	0.56
C[N+](C)(C)CCCCCCNC(=O)[C@H]1C[C@H]2C(=O)N[C@@H](Cc3ccccc3)C(=O)N2[C@H]1c1ccc(O)cc1	1.3

[ask] What does the data say about its z-score? Entry: C=CCN1C(=O)[C@@]2(CCS(=O)(=O)c3ccccc3)N=C(c3ccc(OCCCO)cc3)O[C@H]2c2ccccc21
[reply] 0.242

----------
test system: PRMT1 (protein arginine N-methyltransferase 1); assay: PRMT1 binders on small-molecule microarrays, primary screen, biochemical, small-molecule microarray, 635 nm fluorescence (AID 1088); conditions: small-molecule microarray binding, higher = more signal;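 also: binding of Prmt1 protein to compounds spotted on small-molecule microarray slides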
Recorded composite z-score for the following molecules
Keep the answer to the number alone.

Guide cases for composite z-score, answers given:
molecule	assay.metric	measured.result
COCCOC(=O)N1C(=O)[C@@]2(c3cc(C#CC4(O)CCCCCC4)ccc31)[C@H](c1ccc(O)cc1)N1[C@H](c3ccccc3)[C@H](c3ccccc3)OC(=O)[C@H]1[C@@H]2C(=O)NC[C@H](O)c1ccccc1	composite z-score	1.55
Cc1ccc(S[C@]2(C(=O)NCCCN(C)C)CC(=O)N(C3CCCCC3)[C@@H]2c2ccc(CO)cc2)cc1	composite z-score	-0.0316
O=C1N(Cc2ccccc2)Cc2ccccc2[C@@H]2OC(c3ccc(OCCCO)cc3)=N[C@]12CCS(=O)(=O)c1ccccc1	composite z-score	1.57

[ask] Under PRMT1 (protein arginine N-methyltransferase 1): composite z-score value of C[C@H]1NC(=O)[C@@]23C(=O)N[C@@H](Cc4ccccc4)C2[C@H](C)[C@@]2(C)O[C@H]2C3/C=C/C/C=C\CNC(=O)[C@H](Cc2ccccc2)NC1=O (stereo not given in full) ?
[reply] 0.44

[ask] Under PRMT1 (protein arginine N-methyltransferase 1): composite z-score value of CCOC(=O)C[C@H]1[C@H](OC(=O)Cc2ccc3c(c2)OCO3)[C@@H](NC(=O)CC(C)C)c2cc(OCCCO)ccc2N1C(=O)Cc1ccc(OC)cc1 ?
[reply] 0.336

[ask] Under PRMT1 (protein arginine N-methyltransferase 1): composite z-score value of Cc1ccccc1C(O)C1C=CC2C(=O)N(C)C(=O)C2N1N(c1ccccc1)c1ccccc1 (stereo not given) ?
[reply] -0.437

[ask] Under PRMT1 (protein arginine N-methyltransferase 1): composite z-score value of O=C1NC(=O)C2C1C=CC(C(O)c1cccc3ccccc13)N2Nc1ccc(Cl)cc1Cl (stereo not given) ?
[reply] 0.811

[ask] Under PRMT1 (protein arginine N-methyltransferase 1): composite z-score value of CN(C)c1ccc(C(O)C2C=CC3C(=O)N(c4ccccc4)C(=O)C3N2Nc2ccc([N+](=O)[O-])cc2)cc1 (stereo not given) ?
[reply] 1.44

[ask] Under PRMT1 (protein arginine N-methyltransferase 1): composite z-score value of Cn1cccc1C(O)C1C=CC2C(=O)NC(=O)C2N1Nc1ccc(Cl)cc1Cl (stereo not given) ?
[reply] 1.04

[ask] Under PRMT1 (protein arginine N-methyltransferase 1): composite z-score value of CN1C(=O)C2C=CC(C(O)COCc3ccccc3)N(N(c3ccccc3)c3ccccc3)C2C1=O (stereo not given) ?
[reply] 0.482
